src = patent US20250206792

Target: T1, Bovine Beta-casein (SEQ ID NO: 3)
T1 chain: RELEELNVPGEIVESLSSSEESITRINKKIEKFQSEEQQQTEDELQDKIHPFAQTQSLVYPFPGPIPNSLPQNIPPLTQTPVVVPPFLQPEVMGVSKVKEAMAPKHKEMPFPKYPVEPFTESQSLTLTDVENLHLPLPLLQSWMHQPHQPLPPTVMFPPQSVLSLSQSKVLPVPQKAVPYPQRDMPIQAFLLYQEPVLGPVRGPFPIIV
assay.readout: phosphorylation at T39, MS grade, in vitro kinase reaction

[
  {
    "protein": "PrkC (Bacillus subtilis) (SEQ ID NO: 8) (protein) MSGPVPSRARVYTDVNTHRPREYWDYESHVVEWGNQDDYQLVRKLGRGKYSEVFEAINITNNEKVVVKILKPVKKKKIKREIKILENLRGGPNIITLADIVKDPVSRTPALVFEHVNNTDFKQLYQTLTDYDIRFYMYEILKALDYCHSMGIMHRDVKPHNVMIDHEHRKLRLIDWGLAEFYHPGQEYNVRVASRYFKGPELLVDYQMYDYSLDMWSLGCMLASMIFRKEPFFHGHDNYDQLVRIAKVLGTEDLYDYIDKYNIELDPRFNDILGRHSRKRWERFVHSENQHLVSPEALDFLDKLLRYDHQSRLTAREAMEHPYFYTVVKDQARMGSSSMPGGSTPVSSANMMSGISSVPTPSPLGPLAGSPVIAAANPLGMPVPAAAGAQ",
    "experimental.value": "++"
  }
]
